- Target: PKR dsRBD (UniProt P19525 1-184)
- Sequence (P19525 1-184): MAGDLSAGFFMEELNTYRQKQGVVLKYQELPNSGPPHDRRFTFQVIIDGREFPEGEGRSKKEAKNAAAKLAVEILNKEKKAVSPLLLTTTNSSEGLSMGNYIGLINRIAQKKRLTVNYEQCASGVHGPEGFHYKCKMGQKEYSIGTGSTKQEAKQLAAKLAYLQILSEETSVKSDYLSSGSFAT
- Procedure Summary: sedimentation velocity AUC; Kd1; footnote b not in material; AU75: 75 mM HEPES pH 7.5, 75 mM NaCl, 0.1 mM EDTA, 0.1 mM TCEP, 20 °C, 50,000 rpm, 260 nm; errors are confidence intervals (95% joint stated for Table 2); crosslinking in AU75 + 10 mM EDTA, 0.5 µM RNA, 1 µM protein, on ice before UV
- Test Parameters: protein: recombinant; chain copies: 2; weak predicted secondary structure
Reported Kd by item:
Measured Quantity: Kd (µM)

[[record]]
binder = "GGAGAACUUAAUGCCGGAGACCAAAGACUU (ssRNA, 5'-triphosphate) [ppp-Het30]"
measured_quantity = "Kd"
endpoint_result = 5.36

[[record]]
binder = "GGAGAACUUAAUGCCGGAGACCAAAGACUU (ssRNA, 5'-OH) [Het30]"
measured_quantity = "Kd"
endpoint_result = 8.21


# credit: paper PMC5469796
